Test: Pharmacokinetic study in vivo of ALDP with or without pretreatment of DST (LC-MS/MS)
Set-up: species or system male Sprague–Dawley rats
Settings: male, Sprague-Dawley, rat, plasma, po, 1 mg/kg; read-out: Cmax
measure: Cmax (ng/mL)

molecule="CCOC(=O)C1=C(COCCN)NC(C)=C(C(=O)OC)C1c1ccccc1Cl (stereo not shown)" recorded_result=22.8

---

Experiment: Pharmacokinetic study in vivo of ALDP with or without pretreatment of DST (LC-MS/MS)
Set-up: species or system male Sprague–Dawley rats
Settings: male, Sprague-Dawley, rat, plasma, po
measure: Tmax

compound="CCOC(=O)C1=C(COCCN)NC(C)=C(C(=O)OC)C1c1ccccc1Cl (stereo not shown)" recorded_result="4.02 h"
